Values compiled from patent US11603373B2.

Biological target: TDO2 (SW48 cells, high TDO expressing cells) (Homo sapiens, UniProt P48775)
Construct: SW48 cells (high TDO expressing cells); endogenous in cells
Sequence (P48775 whole entry): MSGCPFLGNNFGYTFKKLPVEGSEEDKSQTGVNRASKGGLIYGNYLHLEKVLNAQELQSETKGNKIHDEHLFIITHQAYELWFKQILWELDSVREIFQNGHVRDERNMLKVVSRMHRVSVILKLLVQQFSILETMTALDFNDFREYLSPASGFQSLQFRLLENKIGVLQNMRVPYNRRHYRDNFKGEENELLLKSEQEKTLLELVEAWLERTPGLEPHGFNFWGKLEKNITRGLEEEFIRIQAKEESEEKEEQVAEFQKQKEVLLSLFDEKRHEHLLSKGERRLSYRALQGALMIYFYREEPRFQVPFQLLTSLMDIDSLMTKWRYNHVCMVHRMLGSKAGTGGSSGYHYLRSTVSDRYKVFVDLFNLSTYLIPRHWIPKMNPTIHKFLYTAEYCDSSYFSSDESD
Assay: NFK GreenScreen cell assay, inhibition of TDO in SW48 cells
Details: read-out: TDO2 Cell Fluor EC50
outcome_measure: EC50 (µM)

compound: O=C(C1CCC1)N1CCC2(CC1)C[C@@H]([C@H]1c3ccccc3-c3cncn31)[C@H]2O
numeric_result: 0.73

compound: CC(C)(C)OC(=O)N1[C@@H]2CC[C@H]1C[C@]1(C[C@@H]([C@H]3c4ccccc4-c4cncn43)[C@H]1O)C2 (single isomer, unassigned) [Example 12j]
numeric_result: 0.74

compound: O=S(=O)(C1COC1)N1CCC2(CC1)CC(C1c3ccccc3-c3cncn31)C2O (stereo not shown) [Example 23a]
numeric_result: 0.33

compound: CN1CCC(C(=O)N2CCC3(CC2)CC(C2c4ccccc4-c4cncn42)C3O)CC1=O (stereo not shown)
numeric_result: 9.2
